System: Escherichia coli TOP10
METHOD: shrunken log2 fold change of peptide-encoding DNA abundance (4.5 h post-induction vs induction); higher = less antimicrobial activity (less host growth inhibition)
CONDITIONS: time post-induction: 4.5 h; library: site-saturation at positions 5, 18, 19, 20
ENDPOINT_NAME: shrunken log2 fold change
# print the numeric value only

Query: Given the sequence RRIRKRPPRLPRPRPRPAVHPRP , what is its reported shrunken log2 fold change?
Reply: 0.112

Query: Given the sequence RRIRERPPRLPRPRPRPMDSPRP , what is its reported shrunken log2 fold change?
Reply: -0.0933

Query: Given the sequence RRIRNRPPRLPRPRPRPFVMPRP , what is its reported shrunken log2 fold change?
Reply: -0.0984

Query: Given the sequence RRIRRRPPRLPRPRPRPNFTPRP , what is its reported shrunken log2 fold change?
Reply: 0.205

Query: Given the sequence RRIRMRPPRLPRPRPRPKSMPRP , what is its reported shrunken log2 fold change?
Reply: 0.0732

Query: Given the sequence RRIRLRPPRLPRPRPRPQYFPRP , what is its reported shrunken log2 fold change?
Reply: -0.158

Query: Given the sequence RRIRQRPPRLPRPRPRPKCTPRP , what is its reported shrunken log2 fold change?
Reply: -0.0317

Query: Given the sequence RRIRHRPPRLPRPRPRPSKAPRP , what is its reported shrunken log2 fold change?
Reply: -0.463

###

System: Escherichia coli TOP10
METHOD: shrunken log2 fold change of peptide-encoding DNA abundance (4.5 h post-induction vs induction); higher = less antimicrobial activity (less host growth inhibition)
CONDITIONS: time post-induction: 4.5 h; library: site-saturation at positions 5, 18, 19, 20
ENDPOINT_NAME: shrunken log2 fold change
# print the numeric value only

Query: Given the sequence RRIRGRPPRLPRPRPRPEHLPRP , what is its reported shrunken log2 fold change?
Reply: 0.494

Query: Given the sequence RRIRERPPRLPRPRPRPGTYPRP , what is its reported shrunken log2 fold change?
Reply: -0.478

Query: Given the sequence RRIRIRPPRLPRPRPRPQACPRP , what is its reported shrunken log2 fold change?
Reply: 0.126

Query: Given the sequence RRIRNRPPRLPRPRPRPIKCPRP , what is its reported shrunken log2 fold change?
Reply: -0.0141

Query: Given the sequence RRIRSRPPRLPRPRPRPDREPRP , what is its reported shrunken log2 fold change?
Reply: 0.154

Query: Given the sequence RRIRCRPPRLPRPRPRPKCEPRP , what is its reported shrunken log2 fold change?
Reply: 0.11

Query: Given the sequence RRIRRRPPRLPRPRPRPFDAPRP , what is its reported shrunken log2 fold change?
Reply: 0.44

Query: Given the sequence RRIRRRPPRLPRPRPRPMKCPRP , what is its reported shrunken log2 fold change?
Reply: -0.0984

Query: Given the sequence RRIRNRPPRLPRPRPRPCVYPRP , what is its reported shrunken log2 fold change?
Reply: -0.215

Query: Given the sequence RRIRDRPPRLPRPRPRPKCSPRP , what is its reported shrunken log2 fold change?
Reply: 0.243

Query: Given the sequence RRIRNRPPRLPRPRPRPMGVPRP , what is its reported shrunken log2 fold change?
Reply: 0.165

Query: Given the sequence RRIRCRPPRLPRPRPRPHFVPRP , what is its reported shrunken log2 fold change?
Reply: -0.23

Query: Given the sequence RRIRVRPPRLPRPRPRPFIDPRP , what is its reported shrunken log2 fold change?
Reply: 0.0294

Query: Given the sequence RRIRFRPPRLPRPRPRPAWPPRP , what is its reported shrunken log2 fold change?
Reply: 0.268

Query: Given the sequence RRIRFRPPRLPRPRPRPAPCPRP , what is its reported shrunken log2 fold change?
Reply: 0.294

Query: Given the sequence RRIRCRPPRLPRPRPRPTINPRP , what is its reported shrunken log2 fold change?
Reply: -0.783

Query: Given the sequence RRIRWRPPRLPRPRPRPDFKPRP , what is its reported shrunken log2 fold change?
Reply: -0.0843

Query: Given the sequence RRIRFRPPRLPRPRPRPLQCPRP , what is its reported shrunken log2 fold change?
Reply: -0.293

Query: Given the sequence RRIRARPPRLPRPRPRPQLHPRP , what is its reported shrunken log2 fold change?
Reply: 0.054

Query: Given the sequence RRIRTRPPRLPRPRPRPKIQPRP , what is its reported shrunken log2 fold change?
Reply: -0.0936

Query: Given the sequence RRIRRRPPRLPRPRPRPQSMPRP , what is its reported shrunken log2 fold change?
Reply: 0.0695

Query: Given the sequence RRIRCRPPRLPRPRPRPTDTPRP , what is its reported shrunken log2 fold change?
Reply: -0.438

Query: Given the sequence RRIRGRPPRLPRPRPRPSPVPRP , what is its reported shrunken log2 fold change?
Reply: 0.585

Query: Given the sequence RRIRYRPPRLPRPRPRPEHSPRP , what is its reported shrunken log2 fold change?
Reply: -0.425

Query: Given the sequence RRIRPRPPRLPRPRPRPALLPRP , what is its reported shrunken log2 fold change?
Reply: 0.0603

Query: Given the sequence RRIRDRPPRLPRPRPRPRFCPRP , what is its reported shrunken log2 fold change?
Reply: 0.341

Query: Given the sequence RRIRCRPPRLPRPRPRPLVWPRP , what is its reported shrunken log2 fold change?
Reply: 0.207

Query: Given the sequence RRIRFRPPRLPRPRPRPWIRPRP , what is its reported shrunken log2 fold change?
Reply: -0.205

Query: Given the sequence RRIRIRPPRLPRPRPRPTKRPRP , what is its reported shrunken log2 fold change?
Reply: -0.0508

Query: Given the sequence RRIRQRPPRLPRPRPRPGDAPRP , what is its reported shrunken log2 fold change?
Reply: 1.65

Query: Given the sequence RRIRRRPPRLPRPRPRPEFYPRP , what is its reported shrunken log2 fold change?
Reply: 0.413

Query: Given the sequence RRIRIRPPRLPRPRPRPVPKPRP , what is its reported shrunken log2 fold change?
Reply: 0.0597

###

System: Escherichia coli TOP10
METHOD: shrunken log2 fold change of peptide-encoding DNA abundance (4.5 h post-induction vs induction); higher = less antimicrobial activity (less host growth inhibition)
CONDITIONS: time post-induction: 4.5 h; library: site-saturation at positions 5, 18, 19, 20
Quick rule: shrunken log2 fold change of at least -0.03 means Y, below that means N.

Query: Is it the case that RRIRSRPPRLPRPRPRPDDFPRP has shrunken log2 fold change reaching or exceeding -0.03?
Reply: N

Query: Is it the case that RRIRKRPPRLPRPRPRPYHLPRP has shrunken log2 fold change reaching or exceeding -0.03?
Reply: N

Query: Is it the case that RRIRYRPPRLPRPRPRPNKVPRP has shrunken log2 fold change reaching or exceeding -0.03?
Reply: N

Query: Is it the case that RRIRKRPPRLPRPRPRPVWPPRP has shrunken log2 fold change reaching or exceeding -0.03?
Reply: Y

Query: Is it the case that RRIRIRPPRLPRPRPRPTWRPRP has shrunken log2 fold change reaching or exceeding -0.03?
Reply: Y

Query: Is it the case that RRIRLRPPRLPRPRPRPMCCPRP has shrunken log2 fold change reaching or exceeding -0.03?
Reply: N

Query: Is it the case that RRIRGRPPRLPRPRPRPNPWPRP has shrunken log2 fold change reaching or exceeding -0.03?
Reply: Y

Query: Is it the case that RRIRLRPPRLPRPRPRPGIIPRP has shrunken log2 fold change reaching or exceeding -0.03?
Reply: N

Query: Is it the case that RRIRRRPPRLPRPRPRPLERPRP has shrunken log2 fold change reaching or exceeding -0.03?
Reply: Y

Query: Is it the case that RRIRGRPPRLPRPRPRPIAGPRP has shrunken log2 fold change reaching or exceeding -0.03?
Reply: Y

Query: Is it the case that RRIRHRPPRLPRPRPRPCYHPRP has shrunken log2 fold change reaching or exceeding -0.03?
Reply: Y

Query: Is it the case that RRIRQRPPRLPRPRPRPKGYPRP has shrunken log2 fold change reaching or exceeding -0.03?
Reply: Y

Query: Is it the case that RRIRGRPPRLPRPRPRPFSPPRP has shrunken log2 fold change reaching or exceeding -0.03?
Reply: Y

Query: Is it the case that RRIRQRPPRLPRPRPRPEADPRP has shrunken log2 fold change reaching or exceeding -0.03?
Reply: Y

Query: Is it the case that RRIRGRPPRLPRPRPRPIRNPRP has shrunken log2 fold change reaching or exceeding -0.03?
Reply: Y

###

System: Escherichia coli TOP10;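 also: peptides expressed intracellularly from a pBAD plasmid library in pooled LB shake-flask culture, induced with 0.3% L-arabinose, DNA abundance read by NGS, three biological replicates, DESeq2 with apeglm shrinkage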
METHOD: shrunken log2 fold change of peptide-encoding DNA abundance (4.5 h post-induction vs induction); higher = less antimicrobial activity (less host growth inhibition)
CONDITIONS: time post-induction: 4.5 h; library: site-saturation at positions 5, 18, 19, 20
ENDPOINT_NAME: shrunken log2 fold change
# print the numeric value only

Query: Given the sequence RRIRARPPRLPRPRPRPWCNPRP , what is its reported shrunken log2 fold change?
Reply: -0.536

Query: Given the sequence RRIRCRPPRLPRPRPRPFAGPRP , what is its reported shrunken log2 fold change?
Reply: -0.175

Query: Given the sequence RRIRMRPPRLPRPRPRPPDQPRP , what is its reported shrunken log2 fold change?
Reply: 2.01

Query: Given the sequence RRIRCRPPRLPRPRPRPKWRPRP , what is its reported shrunken log2 fold change?
Reply: 0.422

Query: Given the sequence RRIRLRPPRLPRPRPRPFSTPRP , what is its reported shrunken log2 fold change?
Reply: 0.0382

Query: Given the sequence RRIRGRPPRLPRPRPRPVFDPRP , what is its reported shrunken log2 fold change?
Reply: 0.39

Query: Given the sequence RRIRFRPPRLPRPRPRPCYAPRP , what is its reported shrunken log2 fold change?
Reply: -0.618

Query: Given the sequence RRIRPRPPRLPRPRPRPFVPPRP , what is its reported shrunken log2 fold change?
Reply: 0.0581

Query: Given the sequence RRIRCRPPRLPRPRPRPPSNPRP , what is its reported shrunken log2 fold change?
Reply: -0.416

Query: Given the sequence RRIRHRPPRLPRPRPRPIIWPRP , what is its reported shrunken log2 fold change?
Reply: -0.145

Query: Given the sequence RRIRQRPPRLPRPRPRPIGGPRP , what is its reported shrunken log2 fold change?
Reply: -0.0328

Query: Given the sequence RRIRMRPPRLPRPRPRPEGRPRP , what is its reported shrunken log2 fold change?
Reply: 3.21

Query: Given the sequence RRIRGRPPRLPRPRPRPSVRPRP , what is its reported shrunken log2 fold change?
Reply: 0.529

Query: Given the sequence RRIRKRPPRLPRPRPRPENGPRP , what is its reported shrunken log2 fold change?
Reply: 0.0267

Query: Given the sequence RRIRFRPPRLPRPRPRPNPPPRP , what is its reported shrunken log2 fold change?
Reply: 0.544
